In this section, each of the molecules is paired with its reported IC50.
target: human CYP4A11 (Homo sapiens (Human)); experiment: Inhibition test against 20-HETE producing enzyme CYP4A11 (luciferine derivative, luminescence); type: biochemical; conditions: E. coli membrane fraction expressing human CYP4A11, 60 μM luciferine derivative, room temperature 60 minutes
Sequence (Q02928 5-519): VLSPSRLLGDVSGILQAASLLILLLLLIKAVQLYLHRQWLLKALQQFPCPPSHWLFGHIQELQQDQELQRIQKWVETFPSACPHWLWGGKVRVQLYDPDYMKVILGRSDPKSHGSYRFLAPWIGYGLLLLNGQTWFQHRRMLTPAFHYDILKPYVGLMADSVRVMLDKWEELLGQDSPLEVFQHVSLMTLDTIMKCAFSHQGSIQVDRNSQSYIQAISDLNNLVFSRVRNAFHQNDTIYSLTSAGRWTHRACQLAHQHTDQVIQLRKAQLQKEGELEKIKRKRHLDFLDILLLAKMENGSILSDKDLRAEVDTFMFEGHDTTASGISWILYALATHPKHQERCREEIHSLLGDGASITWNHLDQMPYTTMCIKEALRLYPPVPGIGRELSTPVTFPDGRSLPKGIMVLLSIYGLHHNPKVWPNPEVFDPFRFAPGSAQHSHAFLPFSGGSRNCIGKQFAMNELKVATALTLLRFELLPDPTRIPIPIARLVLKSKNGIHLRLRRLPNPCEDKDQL
Unit nM implied. Number only.

MOLECULE	IC50 (nM)
NC(=O)c1cc(COc2ccc(-c3n[nH]cc3Cl)nc2)ccn1	950
CC(C)(OCCOCCCCOc1ccc(-c2ccn[nH]2)nc1)C(=O)O	120
CC(C)(CC(=O)N1CCCC(CCCOc2ccc(-c3ccn[nH]3)nc2)C1)C(=O)O (stereo not drawn)	9300
O=C(NCc1cc(O)no1)c1cccc(COc2ccc(-c3ccn[nH]3)nc2)c1	190
O=C(O)C(F)(F)c1cccc(COc2ccc(-c3ccn[nH]3)nc2)c1	8.2

Proceeding to the next molecule to report its IC50.
Asked: Kindly state the measured IC50 obtained for O=C(O)CCC(=O)N1CCC[C@H](COc2ccc(-c3ccn[nH]3)nc2)C1 with human CYP4A11 (Homo sapiens (Human)).
Given back: 320
